Reference source for all entries: paper PMC3834928

assay: Solubility of cinnarizine in SNEDDSs, excipients and buffer (excess drug, end-over-end rotation, HPLC); assay type: physicochemical; settings: 100 mM TRIS maleate buffer pH 6.5, 37 °C, n = 3; read-out: Aqueous solubility (37 °C)
READOUT: solubility
In your response, put the unit directly after the numeric value.

Which solubility value is on record for C(=C\c1ccccc1)/CN1CCN(C(c2ccccc2)c2ccccc2)CC1 [Cinnarizine, cinnarizine] ?
0.39 µg/mL
